# test summary: in vitro
# Assay type: cell-based, mammalian
# test conditions: melanoma cells
# Method: Pigment producing cells derived from a mammalian melanoma are grown in culture by standard methods. Preferred cell lines are B16 or S-91 cells, but other lines or primary mouse or human melanocytes can be used. […] The cells are incubated in 50 μg/ml neutral red solution for 3 hours at 37° C. in 5% CO2 in air. […] The amount of neutral red dye is quantified by measuring absorbance at 540 nm. […] The results for melanin production were calculated as percentages of control which contained medium alone. […]
measured property: viability at 170 µM (%)
Just the number please, in %, no unit attached.

Query string: Param item = Oc1ccc(CCC(O)c2c(O)cc(O)cc2O)cc1 (stereo not shown) [Dihydrophloretin, dihydrophloretin] ; retrieve measured viability at 170 µM.
Result string: 100

====

# test summary: in vitro
# Format: cell-based, mammalian
# test conditions: melanoma cells
# Experimental: Pigment producing cells derived from a mammalian melanoma are grown in culture by standard methods. Preferred cell lines are B16 or S-91 cells, but other lines or primary mouse or human melanocytes can be used. […] The cells are incubated in 50 μg/ml neutral red solution for 3 hours at 37° C. in 5% CO2 in air. […] The amount of neutral red dye is quantified by measuring absorbance at 540 nm. […] The results for melanin production were calculated as percentages of control which contained medium alone. […]
measured property: viability at 230 µM
Provide a numeric answer, followed by its unit.

Query string: Param item = Oc1ccc(CCC(O)c2c(O)cc(O)cc2O)cc1 (stereo not shown) [Dihydrophloretin, dihydrophloretin] ; retrieve measured viability at 230 µM.
Result string: 100%

====

# test summary: in vitro
# Assay type: cell-based, mammalian
# test conditions: melanoma cells
measured property: viability at 100 µM (%)
Just the number please, in %, no unit attached.

Query string: Param item = Oc1ccc(CCC(O)c2c(O)cc(O)cc2O)cc1 (stereo not shown) [Dihydrophloretin, dihydrophloretin] ; retrieve measured viability at 100 µM.
Result string: 100

====

# test summary: in vitro
# Assay type: cell-based, mammalian
# test conditions: melanoma cells
# Method: Pigment producing cells derived from a mammalian melanoma are grown in culture by standard methods. Preferred cell lines are B16 or S-91 cells, but other lines or primary mouse or human melanocytes can be used. […] The cells are incubated in 50 μg/ml neutral red solution for 3 hours at 37° C. in 5% CO2 in air. […] The amount of neutral red dye is quantified by measuring absorbance at 540 nm. […] The results for melanin production were calculated as percentages of control which contained medium alone. […]
measured property: viability at 2 µM (%)
Just the number please, in %, no unit attached.

Query string: Param item = CC1=C(/C=C/C(C)=C/C=C/C(C)=C/CO)C(C)(C)CCC1 [Trans Retinol, retinol, reference compound] ; retrieve measured viability at 2 µM.
Result string: 100

Measured values drawn from patent US5545399A for this set.
